// values below are reported PBM E-score
Target: Ybr033w (UniProt P38073)
Sequence: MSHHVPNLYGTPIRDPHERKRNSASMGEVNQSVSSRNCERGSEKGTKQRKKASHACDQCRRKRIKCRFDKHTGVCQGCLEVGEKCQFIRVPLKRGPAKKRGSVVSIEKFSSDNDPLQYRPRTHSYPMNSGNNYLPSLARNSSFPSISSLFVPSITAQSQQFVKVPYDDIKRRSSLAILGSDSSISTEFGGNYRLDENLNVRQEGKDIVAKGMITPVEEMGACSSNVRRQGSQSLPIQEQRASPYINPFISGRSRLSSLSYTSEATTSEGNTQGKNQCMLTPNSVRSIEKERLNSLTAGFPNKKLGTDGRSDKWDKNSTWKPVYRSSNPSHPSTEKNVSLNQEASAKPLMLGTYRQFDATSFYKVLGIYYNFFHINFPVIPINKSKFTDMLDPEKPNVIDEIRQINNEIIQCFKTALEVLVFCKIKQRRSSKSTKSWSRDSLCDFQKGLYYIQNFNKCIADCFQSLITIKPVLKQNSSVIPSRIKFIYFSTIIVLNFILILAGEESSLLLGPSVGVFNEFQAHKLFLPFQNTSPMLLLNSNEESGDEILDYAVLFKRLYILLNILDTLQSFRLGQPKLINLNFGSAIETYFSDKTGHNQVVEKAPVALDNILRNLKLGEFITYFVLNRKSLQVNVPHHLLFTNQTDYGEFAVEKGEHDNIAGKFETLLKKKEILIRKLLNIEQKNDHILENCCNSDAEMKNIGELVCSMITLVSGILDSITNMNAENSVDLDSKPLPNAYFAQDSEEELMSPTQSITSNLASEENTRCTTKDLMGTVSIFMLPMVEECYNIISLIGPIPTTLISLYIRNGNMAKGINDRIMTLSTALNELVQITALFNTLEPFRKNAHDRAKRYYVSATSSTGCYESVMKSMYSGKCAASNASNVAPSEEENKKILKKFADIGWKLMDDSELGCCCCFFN
Experiment: PBM E-score (8-mer binding enrichment) (E-score (-0.5 to 0.5)); higher = stronger / more preferred TF binding
Details: protein concentration: 200 nM; construct: GST-full length
Whole data set: some 33,000 sequences, median “E-score (-0.5 to 0.5)” near -0.012, cut for the highest 2% near 0.29. This is one part of a sample in which the highest values are shown more often than they occur.
When you answer, write just the number.

Use these answered entries as a reference point.
CACTTGTC
-0.0719
GTATAATA
0.207
GCGCGATA
0.181
CGGGTGCC
-0.151
CGGACAAG
-0.0192

Data request: Give the measured PBM E-score of AATTCTCC .
Data returned: 0.293

Data request: Which value of PBM E-score has been reported for CAGCAAAC in the records?
Data returned: -0.0765

Data request: Param item = AGGAATAT ; retrieve measured PBM E-score.
Data returned: 0.353

Data request: Would you mind telling me what PBM E-score value was observed for AAGCTAAA ?
Data returned: 0.107

Data request: Request the reported PBM E-score associated with GATAAAAA
Data returned: 0.278

Data request: Record request: PBM E-score value, item GGTTAAAA
Data returned: 0.0924

Data request: Reported PBM E-score, sequence CTCGTGGC : ____
Data returned: -0.173

----------
Target: Ybr033w (UniProt P38073)
Sequence: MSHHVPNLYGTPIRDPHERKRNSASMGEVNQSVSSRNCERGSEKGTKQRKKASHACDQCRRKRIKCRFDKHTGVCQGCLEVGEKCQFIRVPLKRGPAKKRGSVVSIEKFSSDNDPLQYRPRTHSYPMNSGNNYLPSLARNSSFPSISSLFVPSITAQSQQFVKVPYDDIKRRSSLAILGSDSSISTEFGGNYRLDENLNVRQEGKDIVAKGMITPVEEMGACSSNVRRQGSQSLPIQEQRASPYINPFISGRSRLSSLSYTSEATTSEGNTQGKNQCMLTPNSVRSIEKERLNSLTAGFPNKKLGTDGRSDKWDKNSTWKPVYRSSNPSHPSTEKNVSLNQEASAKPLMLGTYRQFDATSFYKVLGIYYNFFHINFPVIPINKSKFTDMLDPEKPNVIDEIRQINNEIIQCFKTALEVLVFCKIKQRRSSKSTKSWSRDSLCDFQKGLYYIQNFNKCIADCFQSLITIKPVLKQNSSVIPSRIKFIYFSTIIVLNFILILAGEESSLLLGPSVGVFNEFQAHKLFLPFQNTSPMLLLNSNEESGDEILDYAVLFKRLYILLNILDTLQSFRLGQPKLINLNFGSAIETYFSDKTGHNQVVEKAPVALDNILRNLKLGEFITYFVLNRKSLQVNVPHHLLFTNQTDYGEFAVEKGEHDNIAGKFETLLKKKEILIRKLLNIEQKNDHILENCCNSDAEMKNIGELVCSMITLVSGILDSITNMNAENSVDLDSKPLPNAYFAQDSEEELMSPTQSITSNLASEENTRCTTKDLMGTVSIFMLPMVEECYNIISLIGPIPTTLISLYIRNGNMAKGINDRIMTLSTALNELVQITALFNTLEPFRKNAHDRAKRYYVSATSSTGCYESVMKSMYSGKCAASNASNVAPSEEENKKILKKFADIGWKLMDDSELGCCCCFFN
Assay: PBM E-score (8-mer binding enrichment) (E-score (-0.5 to 0.5)); higher = stronger / more preferred TF binding
Conditions: protein concentration: 200 nM; construct: GST-full length
In all, about 33,000 sequences were measured (“E-score (-0.5 to 0.5)”: median about -0.012, highest 2% from about 0.29 on). Only a selection was taken, and the highest values are over-represented in it overall.
Assign 1 whenever PBM E-score does not fall below 0.08; assign 0 whenever it does.

Some entries whose results are on file:
ATTTGTTA
1
GTGATTAA
1
TAATTTCA
1
ATTGAGTA
1
GGGATCAA
1
GATAATTA
1
AAATGTTG
0
CGCTCCTA
0

Data request: # check: PBM E-score of ATTATCCA is greater than or equal to 0.08
Data returned: 1

Data request: Does the reported PBM E-score for AAATTTAG fall at or above the 0.08 mark?
Data returned: 1

Data request: Textbook exercise: given the entry CTTATCCA , state whether its PBM E-score is greater than or equal to 0.08.
Data returned: 0

Data request: Decide: is the reported value of PBM E-score for AAACAATC equal to or greater than 0.08?
Data returned: 1

Data request: Hi, just wondering whether CTGATTTA shows PBM E-score of 0.08 or higher.
Data returned: 1

Data request: Decide: PBM E-score of ATTTGTTC >= 0.08?
Data returned: 1

Data request: Textbook exercise: given the entry AAATGTTC , state whether its PBM E-score is greater than or equal to 0.08.
Data returned: 1

Data request: Please indicate if the recorded PBM E-score for GTGATTTA meets or exceeds 0.08.
Data returned: 1

Data request: Reported PBM E-score reaches at least 0.08 for GACTCCCA ?
Data returned: 0

Data request: Identify whether the reported PBM E-score of the following sequence is 0.08 or greater: ATTTCCTA
Data returned: 1

Data request: Does the sequence AAACAATA have recorded PBM E-score that is 0.08 or more?
Data returned: 1
